assay: Organ biodistribution of [^68Ga]Ga-DOTATATE by ex vivo gamma counting; type: in vivo, New Zealand White rabbits; details: male, New Zealand White, rabbit, abdominal aorta, iv, 190 MBq, total radioactivity, male control rabbits, 200 min after tracer injection, median (IQR), N = 6; read-out: Tissue radioactivity, abdominal aorta
Measured Parameter: tissue uptake at 200 min (%ID/g)
// return numeric value only (unit: %ID/g, not printed)

Briefly, tissue uptake at 200 min measured for C[C@@H](O)[C@H](NC(=O)[C@@H]1CSSC[C@H](NC(=O)[C@@H](Cc2ccccc2)NC(=O)CN2CCN(CC(=O)O)CCN(CC(=O)O)CCN(CC(=O)O)CC2)C(=O)N[C@@H](Cc2ccc(O)cc2)C(=O)N[C@H](Cc2c[nH]c3ccccc23)C(=O)N[C@@H](CCCCN)C(=O)N[C@@H]([C@@H](C)O)C(=O)N1)C(=O)O [[^68Ga]Ga-DOTATATE, metal not drawn] : 0.006
